Numbers sourced from patent US20180362585A1.

- system_name: T1, human plasma Kallikrein (human, UniProt P03952 20-638)
- T1 construct: also called hPK; human PK
- protocol_description: phage binding assay
Numbered stars: 1 amine (or outer) side, 2 acyl side, 3 side chain; on linkers, the order of the positions; unused ones are H or OH. Bridge positions count the residues as written; N and C are the ends. Ends that are not written are not given here. TBMB = c1c(C[*:1])cc(C[*:3])cc1C[*:2]
List of BINDING ASSAY SIGNAL values.

{"binder": "CPWPARCTHQDLC (linker 1-7-13 via TBMB (inferred), on phage)", "BINDING ASSAY SIGNAL": 107}
{"binder": "CQWPARCMHQDMC (linker 1-7-13 via TBMB (inferred), on phage)", "BINDING ASSAY SIGNAL": 75}
{"binder": "CSWPARCIHQDLC (linker 1-7-13 via TBMB, on phage)", "BINDING ASSAY SIGNAL": 68}
{"binder": "CSWPARCTHAEMC (linker 1-7-13 via TBMB, on phage)", "BINDING ASSAY SIGNAL": 59}
{"binder": "CNWPARCTHQDLC (linker 1-7-13 via TBMB (inferred), on phage)", "BINDING ASSAY SIGNAL": 116}
{"binder": "CEWPARCLHTDLC (linker 1-7-13 via TBMB, on phage)", "BINDING ASSAY SIGNAL": 60}
